Recorded protein stability index for the following sequences
# EXPERIMENTAL DETAILS: protein stability index of a GFP-peptide fusion (yeast GPS) (PSI 1-4); higher = more stable; sorted into four equal gates, so the index is relative within each strain
# CONDITION INFO: pdr5∆
Reply with the value as a number alone.

Look over these answered cases.
NDNNSPHTPVTRKGYIP [YLR018C/POM34]
2.88
SNIGNNSINNNNIKNGT [YDL088C/ASM4]
2.85
AGSTGFSFGQNNNNTNT [YGR119C/NUP57]
2.5

What value of measured protein stability index is listed for TPKVVRSQDQENPAFLP [SEC65] ?
2.57

What value of measured protein stability index is listed for ELLKLLNDEYNYPQLTE [YCS4] ?
3.11

What value of measured protein stability index is listed for KPFGSAKSDETKQASSF [YLR335W/NUP2] ?
2.09

----------
# EXPERIMENTAL DETAILS: protein stability index of a GFP-peptide fusion (yeast GPS) (PSI 1-4); higher = more stable; sorted into four equal gates, so the index is relative within each strain
# CONDITION INFO: doa10∆
Recorded protein stability index for the following sequences
Reply with the value as a number alone.

Look over these answered cases.
ERGGKFHESGSQYSTMV [RGR1]
3.36
LVRDSKPSKPFNVDDVL [MED8]
2.48
SVFMPLIFIACNDEDKD [ECM29]
2.99
TIGPYRARKDRMRVSVL [SSN3]
3.19
QESFINTMSAWVNMLLI [FAS2]
2.2
KQQGVGLPTDAYVAIEQ [RPN8]
2.78

Could you now consider this next sequence?
What value of measured protein stability index is listed for GAGIQIIMQADLALKMG [FAS2] ?
1.84

----------
Recorded protein stability index for the following sequences
# EXPERIMENTAL DETAILS: protein stability index of a GFP-peptide fusion (yeast GPS) (PSI 1-4); higher = more stable; sorted into four equal gates, so the index is relative within each strain
# CONDITION INFO: pdr5∆
Reply with the value as a number alone.

DSIDLAPNTLTNILISP [YML103C/NUP188]
1.87

Could you now consider this next sequence?
What value of measured protein stability index is listed for FYVPQARNVTFDSLRNF [GRR1] ?
2.27

----------
# EXPERIMENTAL DETAILS: protein stability index of a GFP-peptide fusion (yeast GPS) (PSI 1-4); higher = more stable; sorted into four equal gates, so the index is relative within each strain
# CONDITION INFO: doa10∆
ASSAY ENDPOINT: protein stability index
Reply with the value as a number alone.

Look over these answered cases.
LARQVKLLLLNTSAIQE [YIL149C/MLP2]
2.19
DFLRKATAFNKTRGPFH [RPL16A]
2.19
NAVLGLGDMAVCFNNLV [YCS4]
2.71
VKPHDEGSKSHPFGHAL [RPL27A]
2.95

Could you now consider this next sequence?
What value of measured protein stability index is listed for MAAQKSFRIKQKMAKAK [RPL39] ?
2.75

----------
# EXPERIMENTAL DETAILS: protein stability index of a GFP-peptide fusion (yeast GPS) (PSI 1-4); higher = more stable; sorted into four equal gates, so the index is relative within each strain
# CONDITION INFO: doa10∆
ASSAY ENDPOINT: protein stability index
Reply with the value as a number alone.

What value of measured protein stability index is listed for LQCISQINQGVPSAKPL [SNF11] ?
2.98

What value of measured protein stability index is listed for FLKLYVLVKWTRTIKQN [RGR1] ?
1.41
